target: UniProt:P21452; assay: Signal transduction (ST), intracellular Ca++ FLIPR, NK2; format: cell-based; conditions: antagonist, Ca++ transient peak, read-out: NK2 pIC50 (converted)
Sequence (P21452 whole entry): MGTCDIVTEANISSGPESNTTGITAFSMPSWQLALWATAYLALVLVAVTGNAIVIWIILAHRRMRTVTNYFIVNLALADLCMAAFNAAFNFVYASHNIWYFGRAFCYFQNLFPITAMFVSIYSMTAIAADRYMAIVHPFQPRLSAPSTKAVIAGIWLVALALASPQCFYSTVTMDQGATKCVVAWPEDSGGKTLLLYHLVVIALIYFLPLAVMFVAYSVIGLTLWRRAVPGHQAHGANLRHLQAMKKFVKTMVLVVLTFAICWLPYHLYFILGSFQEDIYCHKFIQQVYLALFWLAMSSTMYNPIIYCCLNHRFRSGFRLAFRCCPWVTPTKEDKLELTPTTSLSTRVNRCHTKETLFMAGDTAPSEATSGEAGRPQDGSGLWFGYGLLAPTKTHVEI
measured_endpoint: IC50 (µM)

[[record]]
compound = "Cc1nnsc1C(=O)N1CCC(N2CCN(C[C@H]3CCN(C(=O)c4cc(C(F)(F)F)cc(C(F)(F)F)c4)[C@H](Cc4ccccc4)C3)CC2)C1 (some centres unmarked)"
measured_endpoint = "IC50"
readout_qualifier = ">"
readout_number = 10

[[record]]
compound = "O=C(c1cc(C(F)(F)F)cc(C(F)(F)F)c1)N1CCC(O)(CN2CCN(C3CCNC3)CC2)CC1Cc1ccccc1 (centres unmarked)"
measured_endpoint = "IC50"
readout_qualifier = ">"
readout_number = 10

[[record]]
compound = "O=C(c1cccnc1)N1CCC(N2CCN(C[C@H]3CCN(C(=O)c4cc(C(F)(F)F)cc(C(F)(F)F)c4)[C@H](Cc4ccccc4)C3)CC2)CC1"
measured_endpoint = "IC50"
readout_qualifier = ">"
readout_number = 10

[[record]]
compound = "O=C(c1ccoc1)N1CCC(N2CCN(CC3(O)CCN(C(=O)c4cc(C(F)(F)F)cc(C(F)(F)F)c4)C(Cc4ccccc4)C3)CC2)C1 (centres unmarked)"
measured_endpoint = "IC50"
readout_qualifier = "="
readout_number = 8.91

[[record]]
compound = "COc1cccc(CC(=O)N2CCC(N3CCN(CC4CCN(C(=O)c5cc(C(F)(F)F)cc(C(F)(F)F)c5)C(Cc5ccccc5)C4)CC3)CC2)c1 (centres unmarked)"
measured_endpoint = "IC50"
readout_qualifier = "="
readout_number = 2.34


====

compounds and their reported IC50
Molecular target: NK3 (Homo sapiens, UniProt P29371)
Sequence (P29371 whole entry): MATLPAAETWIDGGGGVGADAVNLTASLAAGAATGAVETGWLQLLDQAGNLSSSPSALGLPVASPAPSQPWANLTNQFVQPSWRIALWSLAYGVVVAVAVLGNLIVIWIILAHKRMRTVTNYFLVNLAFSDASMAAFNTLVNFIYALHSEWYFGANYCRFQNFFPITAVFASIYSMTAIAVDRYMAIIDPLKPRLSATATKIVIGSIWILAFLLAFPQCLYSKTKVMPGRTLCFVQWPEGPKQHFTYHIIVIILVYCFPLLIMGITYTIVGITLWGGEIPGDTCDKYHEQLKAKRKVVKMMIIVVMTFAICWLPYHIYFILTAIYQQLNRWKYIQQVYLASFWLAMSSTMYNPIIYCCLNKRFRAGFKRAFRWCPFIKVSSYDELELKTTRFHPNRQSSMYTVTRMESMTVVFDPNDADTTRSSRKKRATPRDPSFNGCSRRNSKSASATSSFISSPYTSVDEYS
Test: Signal transduction (ST), intracellular Ca++ FLIPR, NK3
Format: cell-based
Conditions: antagonist, Ca++ transient peak, read-out: NK3 pIC50 (converted)
Experimental: [The source words this procedure for another target and reports this target under the same test.] This test evaluates in vitro functional NK1 antagonistic activity. For the measurements of intracellular Ca^++ concentrations the cells were grown on 96-well (black wall/transparent bottom) plates from Costar for 2 days until they reached confluence. […] The cells were preincubated with a concentration range of antagonists for 20 min at RT and Ca^++-signals after addition of the agonists were measured in a Fluorescence Image Plate Reader (FLIPR from Molecular Devices, Crawley, England). […]
measured_endpoint: IC50 (µM)

[[record]]
compound = "O=C(c1ccccc1)N1CCC(N2CCN(CC3(O)CCN(C(=O)c4cc(C(F)(F)F)cc(C(F)(F)F)c4)C(Cc4ccccc4)C3)CC2)C1 (stereo not drawn) [Compound 79]"
assay_target = "NK3 (Homo sapiens, UniProt P29371)"
readout_qualifier = "="
readout_number = 7.24

[[record]]
compound = "O=C(c1cccnc1)N1CCC(N2CCN(C[C@H]3CCN(C(=O)c4cc(C(F)(F)F)cc(C(F)(F)F)c4)[C@H](Cc4ccccc4)C3)CC2)C1 (stereo partly drawn) [Compound 65]"
assay_target = "NK3 (Homo sapiens, UniProt P29371)"
readout_qualifier = ">"
readout_number = 10

[[record]]
compound = "O=C(c1ccoc1)N1CCC(N2CCN(C(=O)[C@H]3CCN(C(=O)c4cc(C(F)(F)F)cc(C(F)(F)F)c4)[C@H](Cc4ccccc4)C3)CC2)CC1 [Compound 57]"
assay_target = "NK3 (Homo sapiens, UniProt P29371)"
readout_qualifier = "="
readout_number = 2.45

[[record]]
compound = "O=C(c1cccs1)N1CCC(N2CCN(C[C@H]3CCN(C(=O)c4cc(C(F)(F)F)cc(C(F)(F)F)c4)[C@H](Cc4ccccc4)C3)CC2)CC1 (relative stereo) [Compound 37]"
assay_target = "NK3 (Homo sapiens, UniProt P29371)"
readout_qualifier = "="
readout_number = 7.08

[[record]]
compound = "O=C(C1CC1)N1CCC(N2CCN(C(=O)[C@H]3CCN(C(=O)c4cc(C(F)(F)F)cc(C(F)(F)F)c4)[C@H](Cc4ccccc4)C3)CC2)CC1 [Compound 56]"
assay_target = "NK3 (Homo sapiens, UniProt P29371)"
readout_qualifier = "="
readout_number = 0.692

[[record]]
compound = "O=C(CC1CCN(C(=O)c2cc(C(F)(F)F)cc(C(F)(F)F)c2)C(Cc2ccccc2)C1)N1CCN(C2CCNC2)CC1 (stereo not drawn) [Compound 8]"
assay_target = "NK3 (Homo sapiens, UniProt P29371)"
readout_qualifier = ">"
readout_number = 10

